- systemName: T1, ZIKV (prM80E) with a C-terminal myc-myc-hexahistidine tag (Zika virus, UniProt A0A024B7W1 104-694)
- T1 construct: also called ZIKV (prM80E)-mmH; ZIKV-mmH
- assayText: SPR, mAb captured, 37C, pH 5.5 chase
List of koff values.
A number alone suffices; assume s⁻¹.

Known koff results, listed for orientation:
H4H25640P (antibody, V domains shown) VH: QVQLVESGGGVVQPGRSLRLSCAASGFTFSYYGMHWVRQAPGKGLEWVAVILYDGSNKFYSDSVKGRFTISRDNSRNTLYLQMNSLRLEDTAVYYCAKDYGGRFDYWGQGTLVTVSS VL: EIVLTQSPGTLSLSSGERATLSCRASQSVSNKYLAWYQQKPGQVPRLLIYGASNRATGIPDRFSGSGSGTDFTLTINRLEPEDFAVFYCQQYGSTPSTFGQGTKVEIK
0.00402
H4H25641P (antibody, V domains shown) VH: QVQLVESGGGVVQPGRSLRLSCAASGFTFSYYGMHWVRQAPGKGLEWVAVISYDASNNYYVDSVKGRFTISRDNSKNTLYLQMNSLRAEDTAVYYCAKDYGGRFDYWGQGTLVTVSS VL: EIVLTQSPGTLSLSPGERATLSCGASQSVSSYLAWYQQKPGQTPRLLIYGASSRATGIPDRFSGSGSGTDFTLTISRLEPEDFAVYYCQQYGSSPWTFGQGTKVEIK
0.0204

Give koff for H4H25703N (antibody, V domains shown) VH: QVQLVESGGGVVQPGRSLRLSCAASGFTFNYYGMHWVRQAPGKGLEWVAVISYDGTNKYYADSVKGRFTTSRDNSKNTLYLQMNSLRAEDTALYYCARDRGGRFDYWGQGIQVTVSS VL: EIVLTQSPDTLSLSPGERATLSCRASQSVSSNYLAWYQQKPGQAPRLLIYGASSRATGIPDRFSGSGSGTDFTLTISRLEPEDFAVYYCQRYGTSPLTFGGGTKVEIKR
0.00326

Give koff for H4H25637P (antibody, V domains shown) VH: QLQLQESGPGLVKPSETLSLTCTVSGDSISSSNYFWGWIRQPPGKGLEWIGNIYYSGDTYYNPSLKSRVTMSVDTSKKQFSLKLRSVTAADTAVYYCARGRPYYDFWSGYFDYWGQGTLVTVSS VL: EIVLTQSPGTLSLSPGERATLPCRASQSVSSSYLAWYQQKPGQAPRLLIYGASSRATGIPDRFRGSGSGTDFTLTISRLEPEDFAVYYCQQYGTAPWTFGQGTKVEIK
0.00414

Give koff for H4H25587P (antibody, V domains shown) VH: EVQLVESGGGLVQPGRSLTLSCAASGFTFDDYVMHWVRQAPGKGLEWVSGISWNSDTIDYADSVKGRFTISRDNAKNSLYLQMNSLRAEDTALYYCAKDRRSWYGGYFDYWGQGTLVTVSS VL: DIQMTQSPSSLSASVGDRVTITCRASQGISSYLAWYQQKPGKVPKLLIYAASTLQSGVPSRFSGSGSGTDFSLTISSLQPEDVATYYCQKYNSAPLTFGGGTKVEIK
0.0174

Give koff for H4H25704N (antibody, V domains shown) VH: QVQLVESGGGVVQSGRSLRLSCAASGFTFIYYGMHWVRQAPGKGLEWVAVISYDGSDRYYADSVKGRFTISRDDSKNTLYLQMNSLRPEDTAVYYCAKDRGGRFDYWGQGTLVTVSS VL: EIVLTQSPGTLSLSPGERATLSCRASQSVNNNYLAWYQQKPGQAPRLLIYGASSRATGIPDRFGGGGSGTDFTLTISRLEPEDFAVYYCQRYGNSPLTFGGGTKVEIK
0.00107

Give koff for H4H25566P (antibody, V domains shown) VH: QVQLQESGPGLVKPSQTLSLTCTVSGGSISSGGYYWSWIRQHPGKGLEWIGYIYYSGSTYYNPSLKSRITISIDTSKNQFSLKLTSVTAADTAVYYCARGQQLLSFDYWGQGTLVTVSS VL: DIQMTQSPSSVSASVGDRVTITCRASQGISRWLAWYQLKPGKPPTPLIYAASSLQSGAPSRFSGRGSGTDFTLTISSLQPEDFATYYCQQANSFPYTFGQGTKLEIK
0.392

Give koff for H4H25591P (antibody, V domains shown) VH: QVQLVESGGGVVQPGRSLRLSCAASGFTFSYSGMHWVRQAPGKGLEWVAVISYDGINKYYADSVKGRFTISRDNSKNTLYLQMNSLRPEDTAVYYCAKDRGGRFDPWGQGTLVTVSS VL: DIQMTQSPSSLSASVGDRVTITCRASQGISNYLAWYQQKPGKVPNLLIYGASTLHSGVPSRFSGSGSGTDFTLTISSLQPADVATYYCQKYNSAPLTFGGGTKVEIK
0.0184

Give koff for H4H25710N (antibody, V domains shown) VH: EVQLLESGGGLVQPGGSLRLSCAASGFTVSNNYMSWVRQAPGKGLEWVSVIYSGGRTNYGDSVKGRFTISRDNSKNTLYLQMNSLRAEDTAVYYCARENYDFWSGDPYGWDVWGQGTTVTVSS VL: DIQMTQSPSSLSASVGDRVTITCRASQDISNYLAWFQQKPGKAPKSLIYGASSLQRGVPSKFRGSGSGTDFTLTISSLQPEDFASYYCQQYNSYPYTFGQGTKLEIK
0.181

Give koff for H4H25617P (antibody, V domains shown) VH: EVQLVESGGGLVQPGGSLRLSCSASGFTFTTYAMSWVRQAPGRGLEWVSSISGTGVSTYYADSVKGRFTISRDNSKNALYLQMNSLTAEDTAVYYCAKDSGTYHWGQGTLVTVSS VL: EIVLTQSPATLSLSPGERATLSCRASQSVDSYLAWYQQKPGQAPRLLIYDASNRATGIPARFSGSGSGTDFTLTISSLESEDFAVYYCQQRRNWPQFTFGGGTKVEIK
0.00465

These entries and their values trace back to patent US20180016324A1.
